Reported property: melting point

Record excerpt, results attached:
COc1cc(C=O)ccc1OCC(N)=O : 155 to 157 °C
NNc1ccc(S(=O)(=O)NC2CCCCCCC2)cn1 : 140 to 142 °C
Cc1ccc(N2CCCNC(=O)C2)cc1 : 181 to 183 °C
CN(C)S(=O)(=O)c1cccc(CO)c1 : 65 to 67 °C
O=Cc1cccc2c1OCO2 : 34 to 36 °C
Cn1ccc(S(=O)(=O)N2CCNCC2)c1 : 129 to 131 °C
CNS(=O)(=O)c1cccc(N)c1C : 125 to 127 °C
Cn1c(C(=O)O)c(Cl)c2ccccc21 : 233 to 235 °C
O=C1CCc2cc(Cl)ccc2N1 : 162 to 164 °C
O=C(O)C=Cc1cncc(O)c1 : 243 to 245 °C

// below: melting point requested for another compound
# compound `Nc1cc(-c2ccco2)nn1-c1cccc([N+](=O)[O-])c1` ; its melting point = 185 to 187 °C

====

Recorded melting point values for a group of compounds are listed next.

Record excerpt, results attached:
O=Cc1coc2ccc(F)cc2c1=O : 95 to 97 °C
ClCc1nc(-c2ccsc2)no1 : 52 to 56 °C
CN(C)S(=O)(=O)c1ccsc1C(=O)O : 108 to 110 °C
NCCCN1C(=O)NC2(CCCCC2)C1=O : 124 to 126 °C
Cc1ccc(F)c2c1C(=O)C(=O)N2 : 204 to 206 °C
NNC(=S)NCC1CCC1 : 104 to 106 °C

# compound `Nc1nc2ccc(F)cn2n1` ; its melting point = 166 to 168 °C

# compound O=C(O)C1=NN(C2CCS(=O)(=O)C2)C(=O)CC1 (stereo unspecified) ; its melting point = 138 to 140 °C

# compound CC(=O)C(Cc1ccccc1)NC(=O)CCl (stereo unspecified) ; its melting point = 73 to 75 °C

# compound `Cc1nn(CC(=O)O)c(C)c1/C=N/O` ; its melting point = 203 to 205 °C

# compound CS(=O)(=O)NCCC1CCCCN1 (stereo unspecified) ; its melting point = 105 to 107 °C

====

Recorded melting point values for a group of molecules are listed next.

Clc1cc2nc[nH]c2nc1Cl : 119 to 121 °C
CCOc1ccc(C2(O)CCCC2)cc1 : 88 to 90 °C
Cc1c(S(=O)(=O)Cl)sc2cccc(F)c12 : 114 to 116 °C
O=C(O)CSCC(=O)c1ccccc1 : 95 to 97 °C
COc1ccccc1Nc1ncccc1C(=O)O : 175 to 177 °C
O=C1CC2CCCC(C1)N2Cc1cccs1 : 88 to 90 °C

# molecule `Cc1nc(Cl)cc(-c2cccnc2)n1` ; its melting point = 67 to 69 °C

====

Reported property: melting point

Record excerpt, results attached:
CC(CC(=O)O)c1ccncc1 (centres undefined) : 171 to 173 °C
CC1CC1c1ccc(C(=O)O)o1 (centres undefined) : 55 to 57 °C
Cc1ccc2[nH]c(C(=O)O)cc2c1C : 243 to 245 °C
Cc1ccc(-n2[nH]c(C(=O)O)cc2=O)cc1 : 259 to 261 °C
CC(=O)Nc1cc(C)nn1CCC#N : 159 to 161 °C

# compound `Cc1n[nH]c(C)c1SCC(=O)O` ; its melting point = 153 to 155 °C

# compound Cc1n[nH]c(C2CNCCO2)n1 (centres undefined) ; its melting point = 104 to 106 °C

# compound `Cn1cc(CCC(=O)O)c2ccccc21` ; its melting point = 123 to 125 °C

# compound `COc1cc(CCc2cc(N)n[nH]2)cc(OC)c1` ; its melting point = 107 to 109 °C

# compound `Cc1nc(N)sc1Cc1cccc(Br)c1` ; its melting point = 86 to 88 °C

# compound `Nc1cc(C(=O)O)c(Br)cn1` ; its melting point = 276 to 278 °C

====

Recorded melting point values for a group of molecules are listed next.

Record excerpt, results attached:
CSCc1ccc(C(=O)O)cc1 : 145 to 147 °C
CCc1nn(C)c(Cl)c1C=O : 38 to 40 °C
CCCc1onc(C)c1C(=O)O : 107 to 109 °C

# molecule `O=[N+]([O-])c1cc(C(F)(F)F)ccc1I` ; its melting point = 34 to 36 °C

# molecule `N#CCc1c[nH]c2cc(Br)ccc12` ; its melting point = 112 to 114 °C

# molecule `CN(C(=O)c1ccco1)c1ccccc1C(=O)O` ; its melting point = 189 to 191 °C

# molecule `N#CN=C1CCCN1` ; its melting point = 126 to 128 °C

# molecule `Nc1nc2ccc(Cl)cn2n1` ; its melting point = 183 to 185 °C

# molecule `CN(CCC(N)=S)C(=O)OC(C)(C)C` ; its melting point = 79 to 81 °C

# molecule `Cn1ncc2c1CCCC2=O` ; its melting point = 89 to 91 °C

# molecule `CN(C(=O)c1ccc(N)cc1)C1CCCCC1` ; its melting point = 176 to 178 °C

====

Recorded melting point values for a group of molecules are listed next.

Record excerpt, results attached:
O=C(O)c1cc(S(=O)(=O)Nc2ccc(F)cc2)ccc1Cl : 205 to 207 °C
CC(=O)Nc1cccc(C(C)N)c1 (centres undefined) : 59 to 61 °C
CCc1nc(C(=O)O)nn1-c1ccccc1 : 145 to 147 °C
Cc1ccc(Oc2ccc3[nH]c(C)c(C)c(=O)c3c2)cc1 : 284 to 286 °C
CCn1ncc2c(C(=O)O)cc(-c3ccccc3)nc21 : 236 to 238 °C
O=c1ccccn1CCO : 88 to 90 °C

# molecule `CCOC(=O)c1oc(NC)nc1C` ; its melting point = 103 to 105 °C

# molecule `N#Cc1ccc(CS(=O)(=O)NN)cc1` ; its melting point = 142 to 144 °C

# molecule `COc1cc(Br)c(C=O)c(OC)c1` ; its melting point = 89 to 91 °C

# molecule `O=CN1CCN(S(=O)(=O)Cl)CC1` ; its melting point = 103 to 105 °C

# molecule `CC(C)(C)OC(=O)NCC1(C(=O)O)CCCC1` ; its melting point = 123 to 125 °C

====

Recorded melting point values for a group of molecules are listed next.

Record excerpt, results attached:
O=C(O)C1(Br)CCC1 : 40 to 42 °C
O=C(O)CCC(=O)c1cccc(F)c1 : 94 to 96 °C
O=C1COc2ncccc2N1 : 254 to 256 °C
Cc1ccc(N2CCCC(Br)C2=O)cc1 (stereo not drawn) : 96 to 98 °C
O=[N+]([O-])c1ccc(-c2nnc(O)o2)cc1 : 249 to 251 °C
Cc1cc([N+](=O)[O-])cc(C)c1S(=O)(=O)Cl : 84 to 86 °C
Nc1cccc(NC(=O)C2CCCCC2)c1 : 139 to 141 °C
CCN(CC)S(=O)(=O)c1ccc(O)c([N+](=O)[O-])c1 : 82 to 84 °C

# molecule `Cc1c(C(=O)O)nnn1-c1ccc(Cl)cc1F` ; its melting point = 164 to 166 °C

# molecule `CC(C)c1cnc(S)n1C` ; its melting point = 124 to 126 °C

====

Reported property: melting point

Record excerpt, results attached:
Cc1noc(C=Cc2ccc(F)cc2)c1N : 167 to 169 °C
c1ccc(-c2noc(CSc3nnc(-c4ccncc4)o3)n2)cc1 : 134 to 136 °C
N#Cc1ccc(NCCN)nc1 : 103 to 105 °C
CC(C(=O)O)n1cccn1 (centres undefined) : 96 to 98 °C
Cc1ccc(-c2cc(C(=O)O)n[nH]2)s1 : 209 to 211 °C

# compound `O=S(=O)(c1ccc(S)nc1)N1CCOCC1` ; its melting point = 71 to 73 °C

# compound `Cc1ccc(-n2nc(C(C)C)cc2N)cc1` ; its melting point = 47 to 49 °C

# compound `Oc1cccc(CNCC2CC2)c1` ; its melting point = 99 to 101 °C

# compound `Cc1cc(N)c(C)cn1` ; its melting point = 145 to 147 °C

# compound `COc1cccc(-c2noc(Cl)n2)c1` ; its melting point = 56 to 58 °C

====

Reported property: melting point

Record excerpt, results attached:
O=C(NC(C(=O)O)c1ccccc1)OCc1ccccc1 (stereo not given) : 130 to 132 °C
OC1(Cc2ccc(F)cc2)CCNC1 (stereo not given) : 73 to 75 °C
CCN(CC)S(=O)(=O)c1ccc(CCC(=O)O)cc1 : 150 to 152 °C

# molecule O=S1(=O)CC(Cl)C(Cl)C1 (stereo not given) ; its melting point = 130 to 133 °C

# molecule `O=C(c1ccc(O)cc1)N1CCCC1` ; its melting point = 168 to 170 °C

# molecule `O=c1[nH]c(N2CCOCC2)cc2ccccc12` ; its melting point = 212 to 214 °C

# molecule `CC(C)(C)c1cc(N)c(C#N)s1` ; its melting point = 99 to 101 °C
